System: 935938-334-R-J1-PDC spheroids with HUVEC/MSC, viability;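 also: compound exposure lasted seven days before viability was read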
Test: Anticancer human tumor 935938-334-R-J1-PDC patient-derived small intestine adenocarcinoma cell line growth inhibition [PI3K]
Conditions: curve of first compound; second compound 0.1 µM
Text: Combinatorial screen of targeted agents with the PI3K inhibitors inavolisib, alpelisib, duvelisib, and copanlisib in multi-cell type tumor spheroids A high-throughput screen of multi-cell type tumor spheroids was designed to identify active combinations of targeted small molecules and PI3K pathway inhibitors. […] Compounds. […] If the clinical Cmax for an agent had not been determined, the highest concentration tested was 10 microM. […]
pIC50: −log10 of the molar value.
Hi, to clarify the labels: MET covers pIC50 from 6 upward, NOT MET covers anything below 6.

API: above_or_equal(metric=pIC50, cutoff=6) for item CNC(=O)c1ccc(N2C(=S)N(c3ccc(C#N)c(C(F)(F)F)c3)C(=O)C2(C)C)cc1F + Cc1nc(NC(=O)N2CCCC2C(N)=O)sc1-c1ccnc(C(C)(C)C(F)(F)F)c1
NOT MET

API: above_or_equal(metric=pIC50, cutoff=6) for item CC(C)NCC(C(=O)N1CCN(c2ncnc3c2C(C)CC3O)CC1)c1ccc(Cl)cc1 (stereo not given) + COc1c(OCCCN2CCOCC2)ccc2c3n(c(=NC(=O)c4cnc(N)nc4)nc12)CCN3
MET

API: above_or_equal(metric=pIC50, cutoff=6) for item CC1(C)CCC(CN2CCN(c3ccc(C(=O)NS(=O)(=O)c4ccc(NCC5CCOCC5)c([N+](=O)[O-])c4)c(Oc4cnc5[nH]ccc5c4)c3)CC2)=C(c2ccc(Cl)cc2)C1 + COc1c(OCCCN2CCOCC2)ccc2c3n(c(=NC(=O)c4cnc(N)nc4)nc12)CCN3
NOT MET

API: above_or_equal(metric=pIC50, cutoff=6) for item C#Cc1c(F)ccc2cc(O)cc(-c3ncc4c(N5CC6CCC(C5)N6)nc(OCC56CCCN5CC(F)C6)nc4c3F)c12 (stereo not given) + COc1c(OCCCN2CCOCC2)ccc2c3n(c(=NC(=O)c4cnc(N)nc4)nc12)CCN3
MET

Continuing:
API: above_or_equal(metric=pIC50, cutoff=6) for item CC1(C)CCC(Nc2ncc(C(F)(F)F)c(-c3c[nH]c4c(P(C)(C)=O)c(C#N)ccc34)n2)CN1 (stereo not given) + CC(Nc1ccc2c(c1)OCCn1cc(N3C(=O)OCC3C(F)F)nc1-2)C(N)=O
MET

API: above_or_equal(metric=pIC50, cutoff=6) for item CC(Cn1ccc(-c2ccc(C#N)c(Cl)c2)n1)NC(=O)c1cc(C(C)O)[nH]n1 (stereo not given) + CC(Nc1ccc2c(c1)OCCn1cc(N3C(=O)OCC3C(F)F)nc1-2)C(N)=O
NOT MET

API: above_or_equal(metric=pIC50, cutoff=6) for item C=CC(=O)N1CCN(c2nc(=O)n(-c3c(C)ccnc3C(C)C)c3nc(-c4c(O)cccc4F)c(F)cc23)C(C)C1 (stereo not given) + CC(Nc1ccc2c(c1)OCCn1cc(N3C(=O)OCC3C(F)F)nc1-2)C(N)=O
NOT MET
